# System: Recombinant human HDAC10 (Homo sapiens, UniProt Q969S8)
# Construct: made in house
# Sequence (Q969S8 whole entry): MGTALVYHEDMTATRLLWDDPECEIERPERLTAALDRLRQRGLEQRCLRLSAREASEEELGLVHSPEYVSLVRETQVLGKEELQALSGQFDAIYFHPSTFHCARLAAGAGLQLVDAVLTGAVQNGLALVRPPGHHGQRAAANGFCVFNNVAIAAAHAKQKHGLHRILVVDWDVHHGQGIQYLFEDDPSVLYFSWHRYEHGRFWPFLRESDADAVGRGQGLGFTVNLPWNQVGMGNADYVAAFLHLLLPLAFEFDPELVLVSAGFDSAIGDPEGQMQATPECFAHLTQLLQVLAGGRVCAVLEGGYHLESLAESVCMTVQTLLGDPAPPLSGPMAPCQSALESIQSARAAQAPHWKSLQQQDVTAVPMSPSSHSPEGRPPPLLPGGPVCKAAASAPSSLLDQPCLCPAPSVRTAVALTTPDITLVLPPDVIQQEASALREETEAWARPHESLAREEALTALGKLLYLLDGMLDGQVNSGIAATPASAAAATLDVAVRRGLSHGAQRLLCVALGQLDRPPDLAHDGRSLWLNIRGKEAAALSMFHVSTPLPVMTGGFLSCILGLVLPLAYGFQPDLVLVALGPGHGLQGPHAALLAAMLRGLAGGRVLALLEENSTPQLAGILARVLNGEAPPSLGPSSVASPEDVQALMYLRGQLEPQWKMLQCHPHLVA
# Assay protocol: Inhibitor specificity: fluorescence-based HDAC10 activity assay
# Type: biochemical
# Assay conditions: HDAC10 IC50, 10 μM fluorescein-labeled spermidine substrate
Parameter: IC50

Request: Which IC50 reading was recorded for the compound O=C(O)c1ccccc1-c1c2ccc(=O)c(I)c-2oc2c(I)c(OS(=O)(=O)c3ccc(Br)cc3)ccc12 ?
Result: > 100 µM

====

# System: Recombinant human GCPII (Homo sapiens, UniProt Q04609)
# Construct: made in house
# Sequence (Q04609 whole entry): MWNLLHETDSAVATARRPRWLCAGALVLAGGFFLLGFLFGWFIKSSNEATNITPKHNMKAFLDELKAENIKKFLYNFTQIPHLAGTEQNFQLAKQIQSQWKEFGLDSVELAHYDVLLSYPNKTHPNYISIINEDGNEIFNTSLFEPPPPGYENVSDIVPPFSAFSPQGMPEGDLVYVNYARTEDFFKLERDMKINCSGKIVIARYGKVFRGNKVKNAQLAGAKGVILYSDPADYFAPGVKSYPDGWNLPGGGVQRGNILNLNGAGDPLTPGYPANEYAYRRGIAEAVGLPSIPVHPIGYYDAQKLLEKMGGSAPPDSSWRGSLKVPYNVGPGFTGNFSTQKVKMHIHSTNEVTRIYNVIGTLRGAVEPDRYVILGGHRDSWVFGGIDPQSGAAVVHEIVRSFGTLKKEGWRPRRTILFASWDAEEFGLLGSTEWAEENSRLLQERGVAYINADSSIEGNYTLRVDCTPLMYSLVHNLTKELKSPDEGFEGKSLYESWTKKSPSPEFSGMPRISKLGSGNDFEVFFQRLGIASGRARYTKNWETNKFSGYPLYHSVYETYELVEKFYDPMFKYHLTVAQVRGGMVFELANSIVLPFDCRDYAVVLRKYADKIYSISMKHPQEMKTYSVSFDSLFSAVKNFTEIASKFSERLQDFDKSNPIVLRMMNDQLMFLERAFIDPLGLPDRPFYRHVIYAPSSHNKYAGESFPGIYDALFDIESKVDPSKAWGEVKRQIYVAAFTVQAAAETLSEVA
# Assay protocol: In vitro GCPII inhibition assay, fluorescence-based, RP-HPLC readout (screening at 20 μM and IC50)
# Type: biochemical
# Assay conditions: compound at 20 μM; 100 nM fluorescein-labeled Glu-Glu dipeptide substrate
Parameter: Inhibition [%] of GCPII activity (%)
Give the value in % but do not write % after it.

Request: Endpoint output: Inhibition [%] of GCPII activity of O=C(O)c1cc(C(=O)O)c(C(=O)O)cc1C(=O)O . Value?
Result: 33

Request: # input compound: CC(C)(CC(=O)Nc1scc(-c2cccs2)c1C(=O)O)CC(=O)Nc1scc(-c2cccs2)c1C(=O)O ; wanted: its Inhibition [%] of GCPII activity
Result: 38

Request: Looking for the measured Inhibition [%] of GCPII activity of O=C(O)c1ccc(CN2CC(C(=O)O)CC2=O)cc1 (stereo not shown) , can you help?
Result: 1

Request: Return reported Inhibition [%] of GCPII activity; argument: Nc1cc(N)c(C(=O)O)cc1C(=O)O
Result: 29
